# System: ATP;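 also: ATP exposure 15 min at 22 °C before imaging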
# TEST PROTOCOL: switch fluorescence ratio, 500 uM ATP over buffer (Cy3 cluster intensity, sum of 5 cycles each) (fold (ratio)); higher = stronger signal-on switching upon ATP binding; sequences stand for … in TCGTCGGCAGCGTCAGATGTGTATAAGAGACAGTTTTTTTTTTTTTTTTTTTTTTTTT…TC
# TEST PARAMETERS: aptamer strand: ATP DNA aptamer (quencher-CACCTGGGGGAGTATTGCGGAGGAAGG + anchor), 100 nM annealed; ATP concentration: 500 uM
switch fluorescence ratio values by entry

BIOPOLYMER SEQUENCE: TTCAGTGTCG
switch fluorescence ratio: 1.01
--
BIOPOLYMER SEQUENCE: CTTGTCGTTC
switch fluorescence ratio: 1.01
--
BIOPOLYMER SEQUENCE: AAGCGACTCG
switch fluorescence ratio: 1.01
--
BIOPOLYMER SEQUENCE: ATGGGTAATC
switch fluorescence ratio: 1.03
--
BIOPOLYMER SEQUENCE: ACGGCCGGTC
switch fluorescence ratio: 0.977
--
BIOPOLYMER SEQUENCE: TCTTTACAGG
switch fluorescence ratio: 1.09
--
BIOPOLYMER SEQUENCE: TTAAAAATTT
switch fluorescence ratio: 0.976
--
BIOPOLYMER SEQUENCE: GACCTTAATT
switch fluorescence ratio: 1.01
--
BIOPOLYMER SEQUENCE: TTAAGGTATT
switch fluorescence ratio: 1.07
--
BIOPOLYMER SEQUENCE: GATCCTACGG
switch fluorescence ratio: 0.972
--
BIOPOLYMER SEQUENCE: TTTTTATCCA
switch fluorescence ratio: 0.976
--
BIOPOLYMER SEQUENCE: TTAATGATTA
switch fluorescence ratio: 0.994
--
BIOPOLYMER SEQUENCE: GCGAGCGCTG
switch fluorescence ratio: 1.02
--
BIOPOLYMER SEQUENCE: GGTTAATGGA
switch fluorescence ratio: 0.983
--
BIOPOLYMER SEQUENCE: AAACTTCGCT
switch fluorescence ratio: 1.27
--
BIOPOLYMER SEQUENCE: CCAAAAGGAT
switch fluorescence ratio: 1.01
--
BIOPOLYMER SEQUENCE: TTAGTACCAT
switch fluorescence ratio: 1.01
--
BIOPOLYMER SEQUENCE: AACATATATT
switch fluorescence ratio: 1.02
--
BIOPOLYMER SEQUENCE: CGGTGGGAGT
switch fluorescence ratio: 0.973
--
BIOPOLYMER SEQUENCE: CTGAAGCTGT
switch fluorescence ratio: 2.64
--
BIOPOLYMER SEQUENCE: TTTTAATTCG
switch fluorescence ratio: 1.06
--
BIOPOLYMER SEQUENCE: TTGTTGTGAC
switch fluorescence ratio: 0.994
--
BIOPOLYMER SEQUENCE: GAAAGGGGCT
switch fluorescence ratio: 0.993
--
BIOPOLYMER SEQUENCE: ATTGATGAGG
switch fluorescence ratio: 0.972
--
BIOPOLYMER SEQUENCE: TGTATAATGT
switch fluorescence ratio: 0.985
--
BIOPOLYMER SEQUENCE: AGGGGGGGGG
switch fluorescence ratio: 1.02
--
BIOPOLYMER SEQUENCE: AAACAGGGAG
switch fluorescence ratio: 0.974
--
BIOPOLYMER SEQUENCE: GGGACCGTGC
switch fluorescence ratio: 1.07
--
BIOPOLYMER SEQUENCE: TTTGGCTAAG
switch fluorescence ratio: 0.976
--
BIOPOLYMER SEQUENCE: GACTATGGTT
switch fluorescence ratio: 0.986
--
BIOPOLYMER SEQUENCE: ATGGAGGTTA
switch fluorescence ratio: 0.969
--
BIOPOLYMER SEQUENCE: TGGCAAAATT
switch fluorescence ratio: 1.01
--
BIOPOLYMER SEQUENCE: AGTCCCCCTA
switch fluorescence ratio: 1.08
--
BIOPOLYMER SEQUENCE: GAGGATGTTA
switch fluorescence ratio: 1.03
--
BIOPOLYMER SEQUENCE: GGTCGCCGGG
switch fluorescence ratio: 0.976
--
BIOPOLYMER SEQUENCE: AAATTGGGTT
switch fluorescence ratio: 0.977
--
BIOPOLYMER SEQUENCE: GACTAAGTGT
switch fluorescence ratio: 1
--
BIOPOLYMER SEQUENCE: ATTGATTGTA
switch fluorescence ratio: 0.995
--
BIOPOLYMER SEQUENCE: GGTGTTGTTG
switch fluorescence ratio: 1.02
--
BIOPOLYMER SEQUENCE: TTACGGGCGG
switch fluorescence ratio: 1.03
--
BIOPOLYMER SEQUENCE: ATGCGAAGTG
switch fluorescence ratio: 1
--
BIOPOLYMER SEQUENCE: CCTTTTGTGG
switch fluorescence ratio: 1.02
--
BIOPOLYMER SEQUENCE: GTAATTTGCA
switch fluorescence ratio: 0.999
--
BIOPOLYMER SEQUENCE: AGGGAATTTG
switch fluorescence ratio: 1.01
--
BIOPOLYMER SEQUENCE: GGATAAAAGG
switch fluorescence ratio: 0.988
--
BIOPOLYMER SEQUENCE: GTGTGCGCGT
switch fluorescence ratio: 0.983
--
BIOPOLYMER SEQUENCE: AATGGTGAGG
switch fluorescence ratio: 1.05
--
BIOPOLYMER SEQUENCE: GCTAACCATT
switch fluorescence ratio: 1.1
--
BIOPOLYMER SEQUENCE: AATAAGGCAT
switch fluorescence ratio: 1.01
--
BIOPOLYMER SEQUENCE: AGGCCCTAGG
switch fluorescence ratio: 1.05
--
BIOPOLYMER SEQUENCE: CATTTTCTC
switch fluorescence ratio: 1.04
--
BIOPOLYMER SEQUENCE: GATTGAGAGT
switch fluorescence ratio: 1.02
--
BIOPOLYMER SEQUENCE: CGGGAGCTTT
switch fluorescence ratio: 1.07
--
BIOPOLYMER SEQUENCE: TTCTGGGTCT
switch fluorescence ratio: 0.983
--
BIOPOLYMER SEQUENCE: TTCTCCGGGT
switch fluorescence ratio: 1.24
--
BIOPOLYMER SEQUENCE: AGGGGGGTAC
switch fluorescence ratio: 0.991
--
BIOPOLYMER SEQUENCE: ATTTCTAGAA
switch fluorescence ratio: 1.02
--
BIOPOLYMER SEQUENCE: CTTCAGGAGC
switch fluorescence ratio: 1.69
--
BIOPOLYMER SEQUENCE: GAGTACCACT
switch fluorescence ratio: 1.01
--
BIOPOLYMER SEQUENCE: GGGCTTGGCG
switch fluorescence ratio: 1.03
--
BIOPOLYMER SEQUENCE: TTGCTTTTTG
switch fluorescence ratio: 0.984
--
BIOPOLYMER SEQUENCE: TGGGTAAGTT
switch fluorescence ratio: 0.996
--
BIOPOLYMER SEQUENCE: TGTTTGGGGT
switch fluorescence ratio: 0.996
--
BIOPOLYMER SEQUENCE: GGTGTGGCCG
switch fluorescence ratio: 1.02
--
BIOPOLYMER SEQUENCE: ATGGGCCGCT
switch fluorescence ratio: 0.983
--
BIOPOLYMER SEQUENCE: GAACGCGTCC
switch fluorescence ratio: 1.1
--
BIOPOLYMER SEQUENCE: TAAGGCCACG
switch fluorescence ratio: 0.998
--
BIOPOLYMER SEQUENCE: CGAGCGGAAG
switch fluorescence ratio: 1.03
--
BIOPOLYMER SEQUENCE: GATCGATCGT
switch fluorescence ratio: 1
--
BIOPOLYMER SEQUENCE: GGCGGTATGG
switch fluorescence ratio: 1.01
--
BIOPOLYMER SEQUENCE: GGGAATACAT
switch fluorescence ratio: 1.01
--
BIOPOLYMER SEQUENCE: TTTTTTAGGC
switch fluorescence ratio: 0.962
--
BIOPOLYMER SEQUENCE: TGTGTTTCTG
switch fluorescence ratio: 1.02
--
BIOPOLYMER SEQUENCE: TTAGTATGCT
switch fluorescence ratio: 0.986
--
BIOPOLYMER SEQUENCE: ATTACTCACC
switch fluorescence ratio: 1.44
--
BIOPOLYMER SEQUENCE: TTGATAGGCC
switch fluorescence ratio: 1
--
BIOPOLYMER SEQUENCE: TGCGAAGGGT
switch fluorescence ratio: 0.986
--
BIOPOLYMER SEQUENCE: TTGCTTATGG
switch fluorescence ratio: 1.01
--
BIOPOLYMER SEQUENCE: AATATATACG
switch fluorescence ratio: 1.03
--
BIOPOLYMER SEQUENCE: CGGGGGTAGA
switch fluorescence ratio: 0.966
--
BIOPOLYMER SEQUENCE: AATTATGTAA
switch fluorescence ratio: 0.988
--
BIOPOLYMER SEQUENCE: TACTCGTCTA
switch fluorescence ratio: 1.02
--
BIOPOLYMER SEQUENCE: ATTCCGTATA
switch fluorescence ratio: 1.25
--
BIOPOLYMER SEQUENCE: TTGATGCAGC
switch fluorescence ratio: 0.958
--
BIOPOLYMER SEQUENCE: CGTGTACGGA
switch fluorescence ratio: 1.02
--
BIOPOLYMER SEQUENCE: AAGTATAAGG
switch fluorescence ratio: 0.994

Measured values drawn from the supplement of paper PMC10126150 for this set.
